assay: Human HepG2 cell viability assay in 384 well format; type: toxicity, cell-based; set-up: dose 125 nL, time 70.5 hour; concentration not given beside the values; conditions: HepG2 cells, read-out: Inhibition
measure.name: cytotoxicity at 70.5 h (%)
Respond numerically; units are % and should not be typed.

Cn1cc(N2CCC3(CCCN(Cc4ccc(F)cc4)C3)C2=O)cn1 (centres undefined); -12.2
CSCCC(=O)N1CCCC(n2ccnc2)C1 (centres undefined); -6.36
CC[C@@H](CO)NC(=O)c1coc(COc2ccc(OC)cc2)n1; -13
COc1ccc(-n2ncc3c2NC(=O)CSC3C(C)C)cc1 (centres undefined); -3.9
N#Cc1ncn(CC(=O)Cc2c(F)cccc2Cl)n1; -5.66
CCc1nc(C)c(C2CC(=O)Nc3c2c(-c2cccnc2)nn3C)[nH]1 (centres undefined); -5.87
O=C(NC[C@H]1OC[C@@H](NC2COC2)[C@@H]1O)Nc1ccccc1; -1.19
COc1ccc(NC(=O)CCN2CC=C(c3cnn(C)c3)CC2)c(C)c1; 2.12
CC(c1ccccn1)N(C)Cc1cc2cc3c(cc2[nH]c1=O)OCO3 (centres undefined); 6.6
Cc1nnc2n1CCN(Cc1csc(CC(=O)N(C)C)n1)C2; -13.5

Sample COc1c(CNC(c2ccccc2)c2ccc(F)cc2)c(C)nn1C (centres undefined) ; cytotoxicity at 70.5 h observed: 24

Sample COCCCN1CCCC(c2nccn2CC2CCC2)C1 (centres undefined) ; cytotoxicity at 70.5 h observed: -15

Sample CN(C)c1cccc(C2CCCN2c2nc3c(cnn3C)c(=O)[nH]2)c1 (centres undefined) ; cytotoxicity at 70.5 h observed: 15.4

Sample O=C(CCc1ccccc1)NCC1CCN(Cc2cccs2)CC1 ; cytotoxicity at 70.5 h observed: -8.06

Sample CC(NC(=O)NC1CCN(Cc2ccncc2)CC1)c1ccc(F)cc1 (centres undefined) ; cytotoxicity at 70.5 h observed: -13.2

Sample Cc1ccc(N(C)CC(O)COCc2ccccc2F)c(C)c1 (centres undefined) ; cytotoxicity at 70.5 h observed: -0.728
